# assaySystem: T1, monkey GPC3 on HEK293T-monkey GPC3 cells (monkey)
# T1 construct: whole, on cells
# experimentalProtocol: FACS on HEK293T-monkey GPC3 cells
assayReadout: Max MFI (MFI)
Quick reminder: number only, in MFI, skip the unit.

Example entries begin here.
* hAb005LH1L1b (antibody, human IgG1, V domains shown, Humanized F3.54.12) VH: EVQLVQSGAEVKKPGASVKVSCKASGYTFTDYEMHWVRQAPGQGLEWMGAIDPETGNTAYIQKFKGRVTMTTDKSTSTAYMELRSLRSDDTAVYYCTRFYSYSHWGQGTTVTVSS VL: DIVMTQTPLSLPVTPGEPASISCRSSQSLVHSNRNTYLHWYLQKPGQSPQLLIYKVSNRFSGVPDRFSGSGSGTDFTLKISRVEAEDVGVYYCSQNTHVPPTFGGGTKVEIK | 24300
* hAb001H1L1b (antibody, human IgG1, V domains shown, Humanized F2.169.2) VH: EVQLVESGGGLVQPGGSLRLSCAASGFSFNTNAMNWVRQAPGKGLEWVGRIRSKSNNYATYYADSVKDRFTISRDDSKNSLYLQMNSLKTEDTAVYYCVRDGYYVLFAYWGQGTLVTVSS VL: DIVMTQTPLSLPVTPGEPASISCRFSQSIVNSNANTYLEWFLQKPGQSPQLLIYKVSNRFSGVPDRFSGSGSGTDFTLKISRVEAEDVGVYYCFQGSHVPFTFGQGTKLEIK | 32900

Can you look up the measured Max MFI of hAb006LH1L1b (antibody, human IgG1, V domains shown, Humanized F3.38.7) VH: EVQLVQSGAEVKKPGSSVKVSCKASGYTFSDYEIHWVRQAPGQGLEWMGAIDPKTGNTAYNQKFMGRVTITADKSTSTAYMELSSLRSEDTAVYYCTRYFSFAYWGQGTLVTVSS VL: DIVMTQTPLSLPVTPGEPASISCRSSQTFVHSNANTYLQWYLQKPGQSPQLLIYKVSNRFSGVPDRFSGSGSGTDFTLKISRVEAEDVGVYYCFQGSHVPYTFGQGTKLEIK for me? 31800

Can you look up the measured Max MFI of hAb006LH2L1b (antibody, human IgG1, V domains shown, Humanized F3.38.7) VH: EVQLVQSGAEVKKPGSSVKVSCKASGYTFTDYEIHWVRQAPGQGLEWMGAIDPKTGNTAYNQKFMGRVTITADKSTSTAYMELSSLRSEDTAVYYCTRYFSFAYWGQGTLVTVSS VL: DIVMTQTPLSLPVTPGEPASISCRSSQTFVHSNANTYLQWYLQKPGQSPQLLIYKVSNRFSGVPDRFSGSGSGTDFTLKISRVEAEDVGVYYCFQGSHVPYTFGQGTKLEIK for me? 31500

Can you look up the measured Max MFI of hAb003LH1L1b (antibody, human IgG1, V domains shown, Humanized F2.154.1) VH: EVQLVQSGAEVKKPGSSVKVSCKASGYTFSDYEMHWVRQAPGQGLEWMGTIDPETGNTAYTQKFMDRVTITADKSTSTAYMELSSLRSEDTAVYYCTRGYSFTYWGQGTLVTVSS VL: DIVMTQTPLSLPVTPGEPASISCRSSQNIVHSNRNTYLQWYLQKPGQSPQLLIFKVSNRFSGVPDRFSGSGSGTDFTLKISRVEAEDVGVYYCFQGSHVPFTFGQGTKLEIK for me? 28400

Reference source for all entries: patent US20260116991A1
